Ref: patent US20240182406A1

measurementType: melting point

The examples below pair each entry with its known result.
chemSmiles | melting point
O=C(NC1CCN(C(=O)c2ccc(C(=O)O)cc2)CC1)NC12CC3CC(Cl)(CC(C1)c1ccccc13)C2 | 200 °C (dec.)
O=C(NC1CCN(c2ccc(C(=O)O)cc2)CC1)NC12CC3CC(F)(CC(C1)c1ccccc13)C2 | 267 to 268 °C
COC(=O)c1ccc(C(=O)N2CCC(NC(=O)NC34CC5CC(Cl)(CC(C3)c3ccccc35)C4)CC2)cc1 | 128 to 129 °C
COc1cc2c(cc1OC)C1CC3(Cl)CC2CC(NC(=O)NC2CCN(C(=O)C4CCOCC4)CC2)(C1)C3 | 147 to 150 °C

Shift focus to the following entry.
Lookup: melting point for "O=C(NC1CCN(c2ccc(C(=O)O)cc2)CC1)NC12CC3CC(Cl)(CC(C1)c1ccccc13)C2" ?
Found: 226 to 227 °C

* * *

Target: human sEH (Homo sapiens (Human))
Sequence (P34913 whole entry): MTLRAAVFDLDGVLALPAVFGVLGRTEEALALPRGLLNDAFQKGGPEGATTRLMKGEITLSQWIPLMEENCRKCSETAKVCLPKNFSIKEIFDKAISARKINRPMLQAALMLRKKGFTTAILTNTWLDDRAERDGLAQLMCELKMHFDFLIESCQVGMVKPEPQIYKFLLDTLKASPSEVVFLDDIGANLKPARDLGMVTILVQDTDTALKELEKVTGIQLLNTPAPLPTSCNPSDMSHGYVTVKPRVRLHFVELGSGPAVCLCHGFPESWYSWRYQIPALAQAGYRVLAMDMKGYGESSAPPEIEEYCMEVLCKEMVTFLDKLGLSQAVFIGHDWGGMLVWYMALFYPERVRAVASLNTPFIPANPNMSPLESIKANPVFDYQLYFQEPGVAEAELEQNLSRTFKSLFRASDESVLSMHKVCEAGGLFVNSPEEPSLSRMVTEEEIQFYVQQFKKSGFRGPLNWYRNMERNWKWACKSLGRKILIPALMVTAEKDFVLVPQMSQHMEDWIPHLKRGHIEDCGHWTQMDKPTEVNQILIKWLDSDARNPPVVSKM
Test: In vitro determination of sEH inhibition activity (fluorescent assay, CMNPC substrate)
Conditions: purified recombinant human sEH, CMNPC 5 μM, 30° C., mean of triplicate
Description: Cyano(6-methoxynaphthalen-2-yl)methyl 2-(3-phenyloxiran-2-yl)methylcarbonate (CMNPC); cf. Morisseau, C.; Hammock, B. D. Measurement of soluble epoxide hydrolase (sEH) activity. Curr. Protoc. Toxicol. The fluorescent assay was used with purified recombinant human or mouse sEH proteins. The enzymes were incubated at 30° C. with the inhibitors ([I]final=0.4-100,000 nM) for 5 min in 100 mM sodium phosphate buffer (200 μL, pH 7.4) containing 0.1 mg/mL of BSA and 1% of DMSO. […]
Decide using IC50 alone. Strictly below 1 nM: criterion met. Equal to or above 1 nM: criterion not met.

Check out these entries, answers already filled in.
compound | categoryLabel
CC(=O)c1ccc(N2CCC(NC(=O)NC34CC5CC(C)(CC(C3)c3ccccc35)C4)CC2)cc1 | criterion not met
O=C(NC12CC3CC(F)(CC(C1)c1ccccc13)C2)N[C@H]1CC[C@H](Oc2ccc(C(=O)O)cc2)CC1 | criterion met
O=C(NC1CCN(c2ccc(C(=O)O)cc2)CC1)NC12CC3CC(Cl)(CC(C1)c1ccccc13)C2 | criterion met

Lookup: Given "CC12CC3CC(NC(=O)Nc4ccc(F)c(F)c4F)(CC(C1)c1ccccc13)C2" , is recorded IC50 strictly lower than 1 nM?
Found: criterion not met

Lookup: Given COc1ccc2c(c1)C1CC3(C)CC2CC(NC(=O)NC2CCN(C(C)=O)CC2)(C1)C3 (stereo not drawn) , is recorded IC50 strictly lower than 1 nM?
Found: criterion not met

Lookup: Given "COc1cc2c(cc1OC)C1CC3(F)CC2CC(NC(=O)NC2CCN(C(=O)C4CCOCC4)CC2)(C1)C3" , is recorded IC50 strictly lower than 1 nM?
Found: criterion met
